- Tested on: MRC5 cells
- assay-protocol: Cell viability assay in MRC5 cells (MTT)
- test-conditions: 1000 nM
readout-name: Cell viability at 1000 nM (%)

>>> value_measured("COC(=O)c1cc2c(cc1C)/C(=C(/Nc1ccc(C(=O)NOCCN3CCCCC3)cc1)c1ccccc1)C(=O)N2")
69.4
>>> value_measured("COC(=O)c1cc2c(cc1C)/C(=C(/Nc1ccc(C(=O)N(C)OCCN3CCN[C@@H](C)C3)cc1)c1ccccc1)C(=O)N2")
"−0.2"
>>> value_measured("CNC(=O)CN1CCN(CCONC(=O)c2ccc(N/C(=C3\\C(=O)Nc4cc(C(=O)OC)c(C)cc43)c3ccccc3)cc2)CC1")
96.8

---

- Test system: MRC5 cells
- assay-protocol: Cell viability assay in MRC5 cells (MTT)
- test-conditions: 100 nM
Form field: Cell viability at 100 nM (%) (one value per entry).
readout-name: Cell viability at 100 nM (%)

>>> value_measured("COC(=O)c1cc2c(cc1C)/C(=C(/Nc1ccc(C(=O)NOC3CCN(C)CC3)c(C)c1)c1ccccc1)C(=O)N2")
111.7
>>> value_measured("COC(=O)c1cc2c(cc1C)/C(=C(/Nc1ccc(C(=O)NOCCN3CCNC(=O)C3)cc1)c1ccccc1)C(=O)N2")
91.7
>>> value_measured("COC(=O)c1cc2c(cc1C)/C(=C(/Nc1ccc(C(=O)NOCCN3CCC(C#N)CC3)cc1)c1ccccc1)C(=O)N2")
99
>>> value_measured("COC(=O)c1ccc2c(c1)NC(=O)/C2=C(\\Nc1ccc(C(=O)N(C)OCCN(C)C)c(C)c1)c1ccccc1")
102
>>> value_measured("COC(=O)c1cc2c(cc1C)/C(=C(/Nc1ccc(C(=O)NOCCN3CCC(OC)CC3)cc1)c1ccccc1)C(=O)N2")
62
>>> value_measured("COC(=O)c1ccc2c(c1)NC(=O)/C2=C(\\Nc1ccc(C(=O)NOCCN2CCC(C#N)CC2)cc1)c1ccccc1")
96.5

---

- tested-target: PDGFRβ (Homo sapiens (Human), UniProt P09619)
- Sequence (P09619 33-1106): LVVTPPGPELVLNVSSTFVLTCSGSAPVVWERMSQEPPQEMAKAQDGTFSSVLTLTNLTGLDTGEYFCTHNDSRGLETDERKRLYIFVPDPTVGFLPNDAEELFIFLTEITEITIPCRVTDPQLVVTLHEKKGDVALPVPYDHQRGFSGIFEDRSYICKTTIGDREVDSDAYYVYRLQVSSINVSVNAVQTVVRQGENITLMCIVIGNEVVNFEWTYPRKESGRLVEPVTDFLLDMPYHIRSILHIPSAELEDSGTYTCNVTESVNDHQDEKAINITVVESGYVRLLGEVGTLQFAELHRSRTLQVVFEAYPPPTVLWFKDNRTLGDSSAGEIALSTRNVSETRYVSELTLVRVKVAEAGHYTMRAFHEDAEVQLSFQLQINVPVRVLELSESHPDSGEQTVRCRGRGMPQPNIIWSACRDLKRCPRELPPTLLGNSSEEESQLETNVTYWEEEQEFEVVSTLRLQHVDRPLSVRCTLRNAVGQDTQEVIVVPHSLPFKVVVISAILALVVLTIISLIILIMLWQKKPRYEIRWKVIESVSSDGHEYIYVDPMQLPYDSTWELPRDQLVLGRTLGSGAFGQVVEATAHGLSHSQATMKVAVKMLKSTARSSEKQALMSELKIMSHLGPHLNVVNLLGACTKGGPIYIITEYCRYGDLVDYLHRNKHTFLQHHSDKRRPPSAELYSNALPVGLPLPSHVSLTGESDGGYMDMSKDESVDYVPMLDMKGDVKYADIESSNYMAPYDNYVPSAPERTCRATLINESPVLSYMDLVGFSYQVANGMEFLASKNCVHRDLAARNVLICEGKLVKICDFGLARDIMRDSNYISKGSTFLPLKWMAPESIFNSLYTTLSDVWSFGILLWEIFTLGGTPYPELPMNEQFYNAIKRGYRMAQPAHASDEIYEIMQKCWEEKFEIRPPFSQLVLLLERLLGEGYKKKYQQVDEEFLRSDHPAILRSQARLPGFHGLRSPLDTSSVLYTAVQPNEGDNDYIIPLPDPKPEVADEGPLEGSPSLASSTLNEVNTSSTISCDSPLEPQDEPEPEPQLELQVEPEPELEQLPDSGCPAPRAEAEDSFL
- assay-protocol: PDGF-BB induced phosphorylation of PDGFRβ in fibroblasts (MRC5 cells, HTRF)
- Format: cell-based
- test-conditions: MRC5 cells; n = 1 unless otherwise indicated; read-out: PDGFBB-induced PDGFRβ phosphorylation in MRC5 cells (IC50)
pIC50: −log10 of the molar value.
Form field: pIC50 (one value per entry).
readout-name: pIC50

>>> value_measured("COC(=O)c1ccc2c(c1)NC(=O)/C2=C(\\Nc1ccc(C(=O)NOCCN(C)C)cc1)c1ccccc1 [Example 3]")
8.15
>>> value_measured("COC(=O)c1cc2c(cc1C)/C(=C(/Nc1ccc(C(=O)N(OCCN3CCNCC3)C(C)C)cc1)c1ccccc1)C(=O)N2 [Example 69]")
7.84
>>> value_measured("COC(=O)c1cc2c(cc1C)/C(=C(/Nc1ccc(C(=O)N(C)OCCN3C[C@@H]4C[C@H]3CN4)cc1)c1ccccc1)C(=O)N2 [Example 59]")
7.60
>>> value_measured("COC(=O)c1ccc2c(c1)NC(=O)/C2=C(\\Nc1ccc(C(=O)NOCCN2CCC(C#N)CC2)cc1)c1ccccc1 [Example 43]")
7.59
>>> value_measured("COC(=O)c1cc2c(cc1C)/C(=C(/Nc1ccc(C(=O)NOC3CCN(C)CC3)cc1)c1ccccc1)C(=O)N2 [Example 30]")
8.13
>>> value_measured("COC(=O)c1cc2c(cc1C)/C(=C(/Nc1ccc(C(=O)NOCCN3CCN(C)CC3)cc1)c1ccccc1)C(=O)N2 [Example 6]")
8.16
>>> value_measured("COC(=O)c1ccc2c(c1)NC(=O)/C2=C(\\Nc1ccc(S(=O)(=O)N(C)OCCN2CCN(C)CC2)cc1)c1ccccc1 [Example 25]")
7.71
>>> value_measured("CNC(=O)CN1CCN(CCON(C)C(=O)c2ccc(N/C(=C3\\C(=O)Nc4cc(C(=O)OC)c(C)cc43)c3ccccc3)cc2)CC1 [Example 9]")
8.07
>>> value_measured("COC(=O)c1ccc2c(c1)NC(=O)/C2=C(\\Nc1ccc(C(=O)NOCCN2CCNC(=O)C2)cc1)c1ccccc1 [Example 42]")
7.25
>>> value_measured("COC(=O)c1ccc2c(c1)NC(=O)/C2=C(\\Nc1ccc(C(=O)N2CCO2)cc1)c1ccccc1 [Example 37]")
7.62
>>> value_measured("COC(=O)c1cc2c(cc1C)/C(=C(/Nc1ccc(C(=O)N(C)OCCN3CC4CCC(C3)N4)cc1)c1ccccc1)C(=O)N2 [Example 61]")
8.11
>>> value_measured("COC(=O)c1ccc2c(c1)NC(=O)/C2=C(\\Nc1ccc(C(=O)NOCCN2CCS(=O)(=O)CC2)cc1)c1ccccc1 [Example 41]")
7.43
>>> value_measured("COC(=O)c1cc2c(cc1C)/C(=C(/Nc1ccc(C(=O)NOCCN3CCC(C#N)CC3)cc1)c1ccccc1)C(=O)N2 [Example 63]")
8.32
>>> value_measured("COC(=O)c1ccc2c(c1)NC(=O)/C2=C(\\Nc1ccc(C(=O)N(C)OCCN(C)C)c(C)c1)c1ccccc1 [Example 22]")
8.18
>>> value_measured("COC(=O)c1cc2c(cc1C)/C(=C(/Nc1ccc(C(=O)NOCCCN(C)C)c(C)c1)c1ccccc1)C(=O)N2 [Example 29]")
8.50
>>> value_measured("COC(=O)c1cc2c(cc1C)/C(=C(/Nc1ccc(C(=O)N(C)OCCN3CCNCC3)cc1)c1ccccc1)C(=O)N2 [Example 57]")
8.30
>>> value_measured("COC(=O)c1ccc2c(c1)NC(=O)/C2=C(\\Nc1ccc(C(=O)NOCCN2CCN(C)CC2)c(F)c1)c1ccccc1 [Example 33]")
8.05
>>> value_measured("COC(=O)c1ccc2c(c1)NC(=O)/C2=C(\\Nc1ccc(C(=O)NOCCCN(C)C)cc1)c1ccccc1 [Example 19]")
8.23
>>> value_measured("COC(=O)c1ccc2c(c1)NC(=O)/C2=C(\\Nc1ccc(C(=O)NOCCN(C)CCO)cc1)c1ccccc1 [Example 45]")
7.57
>>> value_measured("COC(=O)c1ccc2c(c1)NC(=O)/C2=C(\\Nc1ccc(C(=O)NOCCN2CCC(O)CC2)cc1)c1ccccc1 [Example 40]")
7.53

---

- assay-protocol: PAMPA permeability assay
- Type: in vitro ADME
- test-conditions: PAMPA, pH 7, PAMPA, donor and acceptor compartments
readout-name: recovery at 5 hr, 10 μM (%)

>>> value_measured("COC(=O)c1cc2c(cc1C)/C(=C(/Nc1ccc(C(=O)NOCCCN3CCC(OC)CC3)cc1)c1ccccc1)C(=O)N2 [Example 55]")
59.1
>>> value_measured("COC(=O)c1cc2c(cc1C)/C(=C(/Nc1ccc(C(=O)NOCCCN3CCN(C)CC3)cc1)c1ccccc1)C(=O)N2 [Example 64]")
59.4
>>> value_measured("COC(=O)c1cc2c(cc1C)/C(=C(/Nc1ccc(C(=O)NOCCCN(C)C)cc1)c1ccccc1)C(=O)N2 [Example 27]")
61.2

---

- tested-target: PDGFRβ (Homo sapiens (Human), UniProt P09619)
- assay-protocol: PDGF-BB induced phosphorylation of PDGFRβ in fibroblasts (MRC5 cells, HTRF)
- Assay type: cell-based
- test-conditions: MRC5 cells; n = 1 unless otherwise indicated; read-out: PDGFBB-induced PDGFRβ phosphorylation in MRC5 cells (IC50)
pIC50: −log10 of the molar value.
readout-name: pIC50

>>> value_measured("COC(=O)c1cc2c(cc1C)/C(=C(/Nc1ccc(C(=O)NOCCN3CCNC(=O)C3)cc1)c1ccccc1)C(=O)N2")
8.00
>>> value_measured("COC(=O)c1ccc2c(c1)NC(=O)/C2=C(\\Nc1ccc(C(=O)NOCCN2CCN(C)CC2)cc1)c1ccccc1")
7.82
>>> value_measured("CCN(OCCN1CCNCC1)C(=O)c1ccc(N/C(=C2\\C(=O)Nc3cc(C(=O)OC)c(C)cc32)c2ccccc2)cc1")
7.78
>>> value_measured("COC(=O)c1cc2c(cc1C)/C(=C(/Nc1ccc(C(=O)NOCCN3CCC(N(C)C)CC3)cc1)c1ccccc1)C(=O)N2")
8.03
>>> value_measured("COC(=O)c1cc2c(cc1C)/C(=C(/Nc1ccc(C(=O)NOCCN(C)C)c(C)c1)c1ccccc1)C(=O)N2")
8.11
>>> value_measured("COC(=O)c1cc2c(cc1C)/C(=C(/Nc1ccc(C(=O)N(C)OCCN(C)CCO)cc1)c1ccccc1)C(=O)N2")
8.40

---

- System: MRC5 cells
- assay-protocol: Cell viability assay in MRC5 cells (MTT)
- test-conditions: 300 nM
readout-name: Cell viability at 300 nM (%)

>>> value_measured("COC(=O)c1ccc2c(c1)NC(=O)/C2=C(\\Nc1ccc(C(=O)N(OC)C2CCN(C)CC2)cc1)c1ccccc1")
"86.6%"
>>> value_measured("COC(=O)c1cc2c(cc1C)/C(=C(/Nc1ccc(C(=O)N(C)OCCN3CCNCC3)cc1)c1ccccc1)C(=O)N2")
"123.2%"
>>> value_measured("COC(=O)c1cc2c(cc1C)/C(=C(/Nc1ccc(C(=O)NOCCN3CCNC(=O)C3)cc1)c1ccccc1)C(=O)N2")
"99.7%"
